# Test system: TDF
# PROTOCOL_NOTES: H1.0 immunofluorescence intensity relative to DMSO (% of DMSO); higher = stronger H1.0 induction, active = 120 or more
# MEASUREMENT_CONTEXT: concentration: 10 µM; 24 h
QUANTITY: H1.0 immunofluorescence intensity
Give only the figure.

Known results for molecules:
>  <MOLECULE>
O=C1CN(N=Cc2ccc(-c3ccc([N+](=O)[O-])cc3)o2)C(=O)[N-]1.[Na+] [Dantrolene sodium]

>  <MEASURED_ON>
TDF

>  <QUANTITY>
H1.0 immunofluorescence intensity

>  <NUMERIC_READOUT>
100

$$$$
>  <MOLECULE>
CC#CC1(O)CCC2C3CCC4=CC(=O)CCC4=C3C(c3ccc(N(C)C)cc3)CC21C (stereo not drawn) [Mifepristone]

>  <MEASURED_ON>
TDF

>  <QUANTITY>
H1.0 immunofluorescence intensity

>  <NUMERIC_READOUT>
96.8

$$$$
>  <MOLECULE>
COc1cc2ncnc(Nc3ccc(NC(=O)c4ccccc4)cc3)c2cc1OC [Aurora Kinase Inhibitor II]

>  <MEASURED_ON>
TDF

>  <QUANTITY>
H1.0 immunofluorescence intensity

>  <NUMERIC_READOUT>
111

$$$$
>  <MOLECULE>
CSc1ccc(C(=O)c2[nH]c(=O)[nH]c2C)cc1 [Enoximone]

>  <MEASURED_ON>
TDF

>  <QUANTITY>
H1.0 immunofluorescence intensity

>  <NUMERIC_READOUT>
96.3

$$$$
>  <MOLECULE>
O=C1OC(=O)C2C3CCC(O3)C12 (stereo not drawn) [Norcantharidin]

>  <MEASURED_ON>
TDF

>  <QUANTITY>
H1.0 immunofluorescence intensity

>  <NUMERIC_READOUT>
105

$$$$
>  <MOLECULE>
CCN1C(=O)C=CC1=O [N-Ethylmaleimide]

>  <MEASURED_ON>
TDF

>  <QUANTITY>
H1.0 immunofluorescence intensity

>  <NUMERIC_READOUT>
96.6

$$$$
>  <MOLECULE>
Cc1cc(Nc2cc(N3CCN(C)CC3)nc(Sc3ccc(NC(=O)C4CC4)cc3)n2)n[nH]1 [Tozasertib]

>  <MEASURED_ON>
TDF

>  <QUANTITY>
H1.0 immunofluorescence intensity

>  <NUMERIC_READOUT>
99.2

$$$$

Attention now turns to another entry.
Briefly, H1.0 immunofluorescence intensity measured for Cc1[nH]c2ccccc2c1CC(=O)N[C@@H](Cc1ccccc1)C(=O)N(C)c1ccccc1 : 88.8

###

# Test system: HCC1569
# PROTOCOL_NOTES: H1.0 immunofluorescence intensity relative to DMSO (% of DMSO); higher = stronger H1.0 induction, active = 140 or more
# MEASUREMENT_CONTEXT: concentration: 10 µM; 24 h
Returns true (1) if the recorded H1.0 immunofluorescence intensity is greater than or equal to 100, and false (0) otherwise.

Example entries begin here.
>  <MOLECULE>
COc1ccc(-c2ccc3c(N4CCOCC4)nc(N4CC(C)OC(C)C4)nc3n2)cc1CO (configuration not stated)

>  <CAT>
true (1)

$$$$
>  <MOLECULE>
CCC1OC(=O)C(C)C(OC2CC(C)(OC)C(O)C(C)O2)C(C)C(OC2OC(C)CC(N(C)C)C2O)C(C)(O)CC(C)CN(C)C(C)C(O)C1(C)O (configuration not stated)

>  <CAT>
true (1)

$$$$
>  <MOLECULE>
CSc1nc2ccc3nc(NC(=O)C(c4ccccc4)c4ccccc4)sc3c2s1

>  <CAT>
false (0)

$$$$
>  <MOLECULE>
CCC1(O)C(=O)OCc2c1cc1n(c2=O)Cc2cc3c(CN(C)C)c(O)ccc3nc2-1.Cl (configuration not stated) [Topotecan.HCl]

>  <CAT>
false (0)

$$$$
>  <MOLECULE>
CON=C(C(=O)NC1C(=O)N2C(C(=O)[O-])=C(COC(C)=O)CSC12)c1csc(N)n1.[Na+] (configuration not stated) [Cefotaxime sodium]

>  <CAT>
false (0)

$$$$

Lookup: Kindly determine if H1.0 immunofluorescence intensity recorded for NC(CO)(CO)CO.O=C(c1ccccc1)c1ccc2n1CCC2C(=O)O (configuration not stated) [Ketorolac tris salt] is above or exactly 100.
Found: false (0)

###

// cell number lookup, one value per entry
# System: HCC1569
# PROTOCOL_NOTES: cell number relative to DMSO (% of DMSO); higher = more cells (less growth inhibition / toxicity)
# MEASUREMENT_CONTEXT: concentration: 10 µM; 24 h
Note: the reply should be a number with no unit written.

Answered cases to consult:
>  <COMPOUND>
CCCCCCCCCC(=O)NC(CN1CCOCC1)C(O)c1ccccc1 (racemic)

>  <NUMERIC_READOUT>
99.8

$$$$
>  <COMPOUND>
Cc1ccc(NC(=O)c2ccc(CN3CCN(C)CC3)cc2)cc1Nc1nc(-c2cccnc2)cs1

>  <NUMERIC_READOUT>
82.7

$$$$
>  <COMPOUND>
COc1ccc(S(=O)(=O)N2CCC[C@H]2C(=O)Nc2cc(C)cc(C)c2)cc1

>  <NUMERIC_READOUT>
101

$$$$
>  <COMPOUND>
N#CC(=Cc1ccc(O)c(O)c1)C(=O)NCCCNC(=O)C(C#N)=Cc1ccc(O)c(O)c1

>  <NUMERIC_READOUT>
101

$$$$
>  <COMPOUND>
Clc1ccc(CON=C(Cn2ccnc2)c2ccc(Cl)cc2Cl)c(Cl)c1

>  <NUMERIC_READOUT>
99.8

$$$$

Entry CCCCCC(O)C=CC1C(O)CC(O)C1CC=CCCCC(=O)O (stereo unspecified) [Dinoprost] — recorded cell number = 100

The recorded cell number for O=C(O)C=CC(=O)O.O=C(O)C=CC(=O)O.OCCOCCN1CCN(C2=Nc3ccccc3Sc3ccccc32)CC1 [Quetiapine Fumarate] is 99.3

O=C(O)C1CCCNC1C(=O)O (mixture of isomers) has a reported cell number of 108

###

# Tested on: TDF
# PROTOCOL_NOTES: H1.0 immunofluorescence intensity relative to DMSO (% of DMSO); higher = stronger H1.0 induction, active = 120 or more
# MEASUREMENT_CONTEXT: concentration: 10 µM; 24 h
QUANTITY: H1.0 immunofluorescence intensity
I'd appreciate a reply containing only the number, no unit.

>  <COMPOUND>
O=C(O)c1cc(=O)c2c(Cl)cc(Cl)cc2[nH]1

>  <H1.0 immunofluorescence intensity>
95.2

$$$$
>  <COMPOUND>
O=C(O)c1cn(C2CC2)c2cc(N3C[C@@H]4C[C@H]3CN4)c(F)cc2c1=O

>  <H1.0 immunofluorescence intensity>
91.9

$$$$
>  <COMPOUND>
COc1ccccc1Oc1c(NS(=O)(=O)c2ccc(C(C)(C)C)cc2)nc(-c2ncccn2)nc1OCCO

>  <H1.0 immunofluorescence intensity>
98.9

$$$$
>  <COMPOUND>
Cl.NCCS [Cysteamine hydrochloride]

>  <H1.0 immunofluorescence intensity>
91.2

$$$$

Entry NS(=O)(=O)c1ccc(-n2nc(C(F)(F)F)cc2-c2ccc(Cl)cc2)cc1 under TDF had H1.0 immunofluorescence intensity of 90.5

Given the compound COc1cc2c3cc1Oc1c(OC)c(OC)cc4c1C(Cc1ccc(OC(=O)c5ccc([N+](=O)[O-])cc5)c(c1)Oc1ccc(cc1)CC3N(C)CC2)N(C)CC4 (stereo not drawn) and test system TDF, the measured H1.0 immunofluorescence intensity is 98.8

# Brc1ccc(C2CN3CCSC3=N2)cc1.O=C(O)C(=O)O (stereo not drawn) [S(-)-p-Bromotetramisole oxalate] with TDF: H1.0 immunofluorescence intensity is 99.6

Query O=C(O)c1ccc(O)c2ncccc12 [8-hydroxy-5-quinolinecarboxylic acid] on TDF; H1.0 immunofluorescence intensity returned: 94.9

###

# Tested on: HCC1569
# PROTOCOL_NOTES: cell number relative to DMSO (% of DMSO); higher = more cells (less growth inhibition / toxicity)
# MEASUREMENT_CONTEXT: concentration: 10 µM; 24 h
Please enter condition met where cell number is greater than or equal to 100, and condition not met where it is lower.

>  <MOLECULE>
NC(N)=NCCCCN=C(N)N.O=S(=O)(O)O [Arcaine sulfate]

>  <CAT>
condition met

$$$$
>  <MOLECULE>
CCN(CC)CCCC(C)Nc1c2ccc(Cl)cc2nc2ccc(OC)cc12.Cl.Cl (stereo not drawn) [Quinacrine dihydrochloride]

>  <CAT>
condition not met

$$$$
>  <MOLECULE>
COc1ccc(-c2cc(C(O)C3CCCCN3)c3ccccc3n2)cc1.Cl.Cl (stereo not drawn)

>  <CAT>
condition not met

$$$$
>  <MOLECULE>
COc1cc2ncnc(Nc3ccc(F)c(Cl)c3)c2cc1OCCCN1CCOCC1

>  <CAT>
condition not met

$$$$
>  <MOLECULE>
CCCC(CCC)C(=O)[O-].[Na+] [Valproic acid sodium]

>  <CAT>
condition met

$$$$
>  <MOLECULE>
CC(C)=CCCC(C)=CCOc1ccc2ccc(=O)oc2c1 [Auraptene]

>  <CAT>
condition met

$$$$
>  <MOLECULE>
CCCCCCCCCCCCCCCC(O)C(CO)NC(C)=O (stereo not drawn) [C2 Dihydroceramide]

>  <CAT>
condition met

$$$$

Lookup: Has CN(C)c1ccc(C2Nc3ccc4ccccc4c3C3=C2C(=O)CC(C)(C)C3)cc1Br (stereo not drawn) a recorded cell number greater than or equal to 100?
Found: condition not met
